Data origin: patent US6426229B1

- Run description: Storage of aqueous solution or slurry for 60 days: HPLC analysis of components and appearance
- Assay type: physicochemical
- Condition parameters: keeping temperature 70° C.
Measured parameter: Appearance after kept for 60 days

>>> df
                                   compound                 measured_parameter  experimental_value
0  O=C([O-])C[C@H](NCCCN[C@@H](CC(=O)[O-])C(=O)[O-])C(=O)[O-].[Na+].[Na+].[Na+].[Na+] [Example 120]  Appearance after kept for 60 days        White slurry
1  O=C([O-])C[C@@H](C(=O)[O-])N(CC(=O)[O-])CC(=O)[O-].[Na+].[Na+].[Na+].[Na+] [Example 98]  Appearance after kept for 60 days        White slurry
2  O=C([O-])C[C@H](NCC(O)CN[C@@H](CC(=O)[O-])C(=O)[O-])C(=O)[O-].[Na+].[Na+].[Na+].[Na+] [Example 121]  Appearance after kept for 60 days        White slurry

---

- Run description: Storage of aqueous solution or slurry for 60 days: HPLC analysis of components and appearance
- Type: physicochemical
- Condition parameters: keeping temperature 50° C.
Measured parameter: Content of the compound of the formula [I] in aqueous solution after kept for 60 days

>>> print(df.to_string())
                                   compound  experimental_value
0  O=C([O-])CN(CCS(=O)(=O)[O-])CC(=O)[O-].[Na+].[Na+].[Na+] [compound 40]          29.5 wt. %
1  O=C([O-])CN[C@@H](CC(=O)[O-])C(=O)[O-].[Na+].[Na+].[Na+] [Example 85]          35.4 wt. %
2  O=C([O-])CC(NCCCNC(CC(=O)[O-])C(=O)[O-])C(=O)[O-].[Na+].[Na+].[Na+].[Na+] (stereo not shown) [Example 114]          36.4 wt. %
3  CN(CC(=O)[O-])CC(=O)[O-].[Na+].[Na+] [compound 38, disodium N-methyliminodiacetate]          29.9 wt. %

---

- Run description: Storage of aqueous solution or slurry for 60 days: HPLC analysis of components and appearance
- Type: physicochemical
- Condition parameters: keeping temperature 50° C.
Measured parameter: Appearance after kept for 60 days

>>> print(df.to_string())
                                   compound      experimental_value
0  O=C([O-])CN(CCS(=O)(=O)[O-])CC(=O)[O-].[Na+].[Na+].[Na+] [compound 37]  Brown aqueous solution
1  O=C([O-])CCN[C@@H](CC(=O)[O-])C(=O)[O-].[Na+].[Na+].[Na+] [compound 31]  Brown aqueous solution
2  O=C([O-])C[C@@H](C(=O)[O-])N(CC(=O)[O-])CC(=O)[O-].[Na+].[Na+].[Na+].[Na+] [compound 30]  Brown aqueous solution

---

Item-by-item account of Compression strength after stored for 2 months
- Run description: Compression strength (hardening property) of powder stored under load for 2 months
- Assay type: physicochemical
- Condition parameters: Load 200 (table head [Kg]; text 200 g/cm^2); 20-30° C., relative humidity 40-70%
Measured parameter: Compression strength after stored for 2 months

In [3]: df
Out[3]:
                                   molecule  experimental_value
0  O=C(O)C[C@H](NCCCN[C@@H](CC(=O)O)C(=O)O)C(=O)O [Example 64, (S,S)-1,3-propanediaminedisuccinic acid]         0.9 Kg/cm^2
1  O=C([O-])C[C@@H](C(=O)[O-])N(CC(=O)[O-])CC(=O)[O-].[Na+].[Na+].[Na+].[Na+]         0.9 Kg/cm^2
2  O=C(O)C[C@H](NCCN[C@@H](CC(=O)O)C(=O)O)C(=O)O [Example 61, ethylenediaminedisuccinic acid]         0.9 Kg/cm^2

---

Item-by-item account of Content of the compound of the formula [I] in aqueous solution after kept for 60 days
- Run description: Storage of aqueous solution or slurry for 60 days: HPLC analysis of components and appearance
- Type: physicochemical
- Condition parameters: keeping temperature 70° C.
Measured parameter: Content of the compound of the formula [I] in aqueous solution after kept for 60 days

                                   compound  experimental_value
0  O=C([O-])C[C@H](NCCCN[C@@H](CC(=O)[O-])C(=O)[O-])C(=O)[O-].[Na+].[Na+].[Na+].[Na+] [Example 120]          78.4 wt. %
1  O=C([O-])C[C@@H](C(=O)[O-])N(CC(=O)[O-])CC(=O)[O-].[Na+].[Na+].[Na+].[Na+] [Example 98]          78.5 wt. %
2  O=C([O-])CN(CCS(=O)(=O)[O-])CC(=O)[O-].[Na+].[Na+].[Na+] [Example 108]          76.9 wt. %
3  O=C([O-])CN[C@@H](CC(=O)[O-])C(=O)[O-].[Na+].[Na+].[Na+] [Example 97]          76.8 wt. %

---

- Run description: Compression strength (hardening property) of powder stored under load for 2 months
- Type: physicochemical
- Condition parameters: Load 200 (table head [Kg]; text 200 g/cm^2); 20-30° C., relative humidity 40-70%
Measured parameter: Compression strength after stored for 2 months

                                item_smiles  experimental_value
0  O=C([O-])C[C@H](NCCN[C@@H](CC(=O)[O-])C(=O)[O-])C(=O)[O-].[Cu+2].[Na+].[Na+]         1.0 Kg/cm^2
1  O=C([O-])CN(CC(=O)[O-])c1ccccc1C(=O)[O-].[Na+].[Na+].[Na+]         1.0 Kg/cm^2
2  O=C([O-])CCN[C@@H](CC(=O)[O-])C(=O)[O-].[Na+].[Na+].[Na+]         1.0 Kg/cm^2
